assay_details: solvent given as SMILES
condition_summary: in C1CCC2CCCCC2C1
Strictly below -1 kcal/mol in solvation free energy, 298 K: t. Otherwise: f.

[Q] Here's an entry: O=C=O . Is its solvation free energy, 298 K below -1 kcal/mol?
[A] f

[Q] Here's an entry: C=C . Is its solvation free energy, 298 K below -1 kcal/mol?
[A] f

[Q] Here's an entry: O=S=O . Is its solvation free energy, 298 K below -1 kcal/mol?
[A] t

[Q] Here's an entry: C1=CCCCC1 . Is its solvation free energy, 298 K below -1 kcal/mol?
[A] t

###

assay_details: solvent given as SMILES
condition_summary: in CCCCCCC
outcome_measure: solvation free energy, 298 K (kJ/mol)
Just the number please, in kJ/mol, no unit attached.

[Q] Which value of solvation free energy, 298 K has been reported for c1ccsc1 in the records?
[A] -17.1

[Q] Which value of solvation free energy, 298 K has been reported for CCF in the records?
[A] -6.07

[Q] Which value of solvation free energy, 298 K has been reported for O=[N+]([O-])c1cccc(O)c1 in the records?
[A] -32.3

[Q] Which value of solvation free energy, 298 K has been reported for FC(Cl)(Cl)C(F)(Cl)Cl in the records?
[A] -16.7

[Q] Which value of solvation free energy, 298 K has been reported for CC(C)CO in the records?
[A] -14.7

[Q] Which value of solvation free energy, 298 K has been reported for CCC(=O)CC in the records?
[A] -16.9

[Q] Which value of solvation free energy, 298 K has been reported for FC(F)(F)C(F)(F)C(F)(F)C(F)(F)C(F)(F)C(F)(F)C(F)(F)F in the records?
[A] -9.83

[Q] Which value of solvation free energy, 298 K has been reported for CCCC(C)C in the records?
[A] -15.8

[Q] Which value of solvation free energy, 298 K has been reported for Cc1ccc(N)cc1 in the records?
[A] -25.7

Source: the CombiSolv-Exp solvation set (Vermeire and Green 2021)
